system: Enterobacterales; assay: MIC, broth microdilution, CDC/FDA Antibiotic Resistance Isolate Bank (Example 7, Tables 8, 11, 12); format: cell-based; details: Escherichia coli, KUB No. 5769, AR Bank # 373; read-out: MIC
MIC listing for selected molecules.
observation.type: MIC (µg/mL)

{"molecule": "CC(C)(O/N=C(\\C(=O)N[C@@H]1C(=O)N2C(C(=O)[O-])=C(C[N+]3(CCNC(=O)c4ccc(O)c(O)c4Cl)CCCC3)CS[C@H]12)c1csc(N)n1)C(=O)O [Cefiderocol, cefiderocol]", "observation.type": "MIC", "value.units": "µg/mL", "censoring.operator": "≤", "observed.measurement": 0.06}
{"molecule": "CN(C)c1cc(NC(=O)CNC(C)(C)C)c(O)c2c1C[C@H]1C[C@H]3[C@H](N(C)C)C(O)=C(C(N)=O)C(=O)[C@@]3(O)C(O)=C1C2=O [Tigecycline, tigecycline]", "observation.type": "MIC", "value.units": "µg/mL", "censoring.operator": "=", "observed.measurement": 0.5}
{"molecule": "CO/N=C(\\C(=O)N[C@@H]1C(=O)N2C(C(=O)[O-])=C(C[n+]3ccn4ncccc43)CS[C@H]12)c1nsc(N)n1 [Cefozopran, cefozopran]", "observation.type": "MIC", "value.units": "µg/mL", "censoring.operator": "=", "observed.measurement": 0.5}
{"molecule": "C[C@H]1COc2c(N3CCN(C)CC3)c(F)cc3c(=O)c(C(=O)O)cn1c23 [Levofloxacin, levofloxacin]", "observation.type": "MIC", "value.units": "µg/mL", "censoring.operator": "=", "observed.measurement": 32}
{"molecule": "NCC[C@H](O)C(=O)N[C@@H]1C[C@H](N)[C@@H](O[C@H]2O[C@H](CN)[C@@H](O)[C@H](O)[C@H]2O)[C@H](O)[C@H]1O[C@H]1O[C@H](CO)[C@@H](O)[C@H](N)[C@H]1O [Amikacin, amikacin]", "observation.type": "MIC", "value.units": "µg/mL", "censoring.operator": "=", "observed.measurement": 1}
{"molecule": "C[C@H]1[C@H](NC(=O)/C(=N\\OC(C)(C)C(=O)O)c2csc(N)n2)C(=O)N1S(=O)(=O)O [Aztreonam, aztreonam]", "observation.type": "MIC", "value.units": "µg/mL", "censoring.operator": "=", "observed.measurement": 16}

---

system: P. aeruginosa; assay: MIC, broth microdilution, CDC/FDA Antibiotic Resistance Isolate Bank (Example 7, Tables 10, 15); type: cell-based; details: Pseudomonas aeruginosa, P. aeruginosa KUB No. 5605, AR Bank # 108; read-out: MIC
MIC values by entry
observation.type: MIC (µg/mL)

{"molecule.smiles": "CO/N=C(\\C(=O)N[C@@H]1C(=O)N2C(C(=O)[O-])=C(C[n+]3ccn4ncccc43)CS[C@H]12)c1nsc(N)n1", "observation.type": "MIC", "censoring.operator": ">", "observed.measurement": 64}
{"molecule.smiles": "CN(C)c1cc(NC(=O)CNC(C)(C)C)c(O)c2c1C[C@H]1C[C@H]3[C@H](N(C)C)C(O)=C(C(N)=O)C(=O)[C@@]3(O)C(O)=C1C2=O", "observation.type": "MIC", "censoring.operator": "=", "observed.measurement": 8}
{"molecule.smiles": "C[C@H]1[C@H](NC(=O)/C(=N\\OC(C)(C)C(=O)O)c2csc(N)n2)C(=O)N1S(=O)(=O)O", "observation.type": "MIC", "censoring.operator": "=", "observed.measurement": 8}
